This section presents compounds with their documented inhibition of the nicotinamide effect values.
# assayInfo: compounds extending yeast replicative lifespan, primary screen, S. cerevisiae, OD615 (AID 775);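 also: 0% = nicotinamide-treated wells and 100% = cells grown without nicotinamide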
# conditionNotes: S. cerevisiae growth with nicotinamide, at 10 µM, hits give high values, deaD strain in restrictive glucose medium
The campaign covered roughly 130,000 compounds. About 900 (0.69%) were called active. Shown is part of a subset that was picked to be rich in actives.
// units = %; emit number, no label

Below: 6 compounds and their reported inhibition of the nicotinamide effect.
COc1ccc(C(=O)CC2C(=O)N(C)C(=O)N(C)C2=O)cc1 | 31
O=C(N/N=C/c1c(O)n(Cc2ccccc2)c(=O)[nH]c1=O)c1ccccc1 | -4.35
CN1CCN(C(=S)SCC(=O)Nc2ccc(Cl)cc2C(=O)c2ccccc2)CC1 | 2.18
Cn1c(O)c(C=NCCCC(=O)O)c(=O)n(C)c1=O | -5.17
CC(=C1C(=O)c2ccccc2C1=O)N1CCN(CCN=Cc2c(O)n(C)c(=O)n(C)c2=O)CC1 | 26.9
CN(C)C(=O)Oc1cc(=O)n2c3c(cccc13)CCC2 | -0.91

q: Quick one: inhibition of the nicotinamide effect for CC(C(=O)Nc1ccc(Cl)cc1Cl)N1CC=C(c2ccccc2)CC1 (stereo not given) ?
a: -1.28

q: Quick one: inhibition of the nicotinamide effect for "CC(=NC1CCN(Cc2ccccc2)CC1)c1c(O)n(C)c(=O)n(C)c1=O" ?
a: -9.29

q: Quick one: inhibition of the nicotinamide effect for "O=C1NC(=O)N(c2ccc(F)cc2)C(=O)/C1=C/c1ccc2c(c1)CCCN2Cc1ccccc1" ?
a: -3.32

q: Quick one: inhibition of the nicotinamide effect for "CCCCCn1c(=O)c(C(=O)Nc2c(C)n(C)n(-c3ccccc3)c2=O)c(O)c2ccccc21" ?
a: 0.87
